Data credit: patent US20250243180A1

tested-target: CRBN-DDB1 (Homo sapiens (Human), UniProt Q96SW2)
Sequence (Q96SW2 whole entry): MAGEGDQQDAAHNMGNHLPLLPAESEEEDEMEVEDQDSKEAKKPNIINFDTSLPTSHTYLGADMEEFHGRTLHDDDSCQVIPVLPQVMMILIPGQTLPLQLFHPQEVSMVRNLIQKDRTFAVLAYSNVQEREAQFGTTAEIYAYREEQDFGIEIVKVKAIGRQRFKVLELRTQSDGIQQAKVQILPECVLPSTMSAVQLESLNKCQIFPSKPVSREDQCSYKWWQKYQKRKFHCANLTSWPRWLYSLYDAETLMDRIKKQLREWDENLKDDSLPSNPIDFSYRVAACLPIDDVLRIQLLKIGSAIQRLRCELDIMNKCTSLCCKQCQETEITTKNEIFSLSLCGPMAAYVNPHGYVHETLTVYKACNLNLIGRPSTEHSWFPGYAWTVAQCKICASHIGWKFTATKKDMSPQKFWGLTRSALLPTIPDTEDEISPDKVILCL
Sequence (Q16531 whole entry partner): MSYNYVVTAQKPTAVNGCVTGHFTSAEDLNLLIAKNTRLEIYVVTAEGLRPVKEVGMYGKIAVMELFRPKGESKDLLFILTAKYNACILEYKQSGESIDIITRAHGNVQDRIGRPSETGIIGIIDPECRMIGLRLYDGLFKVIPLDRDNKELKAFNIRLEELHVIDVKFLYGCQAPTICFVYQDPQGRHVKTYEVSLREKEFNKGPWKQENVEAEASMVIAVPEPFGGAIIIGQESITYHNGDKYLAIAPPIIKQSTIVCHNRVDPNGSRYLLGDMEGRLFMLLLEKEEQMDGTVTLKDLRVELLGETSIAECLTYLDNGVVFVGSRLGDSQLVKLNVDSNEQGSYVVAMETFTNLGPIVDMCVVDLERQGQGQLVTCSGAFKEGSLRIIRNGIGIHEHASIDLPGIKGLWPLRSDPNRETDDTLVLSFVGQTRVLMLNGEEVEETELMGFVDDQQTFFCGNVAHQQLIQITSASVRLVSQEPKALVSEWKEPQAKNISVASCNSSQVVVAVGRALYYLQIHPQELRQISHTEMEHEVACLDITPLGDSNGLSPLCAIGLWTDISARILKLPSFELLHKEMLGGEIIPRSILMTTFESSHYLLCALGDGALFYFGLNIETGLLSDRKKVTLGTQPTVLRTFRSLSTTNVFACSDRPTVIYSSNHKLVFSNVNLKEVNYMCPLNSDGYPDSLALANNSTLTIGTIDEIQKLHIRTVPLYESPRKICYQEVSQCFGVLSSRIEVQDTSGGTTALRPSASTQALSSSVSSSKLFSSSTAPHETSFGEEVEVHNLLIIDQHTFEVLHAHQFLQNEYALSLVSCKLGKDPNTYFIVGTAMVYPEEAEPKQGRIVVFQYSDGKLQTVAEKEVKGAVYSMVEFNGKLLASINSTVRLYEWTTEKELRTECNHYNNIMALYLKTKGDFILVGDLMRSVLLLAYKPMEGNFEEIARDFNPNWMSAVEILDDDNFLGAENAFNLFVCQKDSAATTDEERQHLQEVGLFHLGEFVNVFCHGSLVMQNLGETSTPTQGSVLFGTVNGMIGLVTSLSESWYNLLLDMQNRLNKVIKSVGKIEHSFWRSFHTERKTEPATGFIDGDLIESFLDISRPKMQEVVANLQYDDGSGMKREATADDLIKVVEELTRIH
measurement-description: Compound binding to CRBN by HTRF assay
endpoint: EC50 (nM)

Below are worked cases with known answers.
compound	endpoint	result
COc1cnc(C(C)(C)C(=O)NCc2cc(Cl)c(C3CCC(=O)NC3=O)c(Cl)c2)nc1 (stereo not drawn)	EC50	70
CC(C)(C(=O)NCc1cc(Cl)c(C2CCC(=O)NC2=O)c(Cl)c1)c1ccc(C(N)=O)cc1F (stereo not drawn)	EC50	70
Cc1cc(C(C)(C)C(=O)NCc2cc(Cl)c(C3CCC(=O)NC3=O)c(Cl)c2)cc(C)n1 (stereo not drawn)	EC50	160
Cc1cc(CNC(=O)C(C)(C)c2ccncc2)cc(Cl)c1C1CCC(=O)NC1=O (stereo not drawn)	EC50	440
CC(C)(C(=O)NCc1cc(F)c(C2CCC(=O)NC2=O)c(Cl)c1)c1ccc(OC(F)F)nn1 (stereo not drawn)	EC50	190
CC(C)(C(=O)NCc1cc(Cl)c(C2CCC(=O)NC2=O)c(Cl)c1)c1ccc(=O)[nH]c1 (stereo not drawn)	EC50	250
CC(C)(C(=O)NCc1cc(Cl)c(C2CCC(=O)NC2=O)c(Cl)c1)c1ccc2cnncc2c1 (stereo not drawn)	EC50	130
Cc1ccnc(C(C)(C)C(=O)NCc2cc(Cl)c(C3CCC(=O)NC3=O)c(Cl)c2)n1 (stereo not drawn)	EC50	200

(1) CC(C)(C(=O)NCc1cc(Cl)c(C2CCC(=O)NC2=O)c(Cl)c1)c1nnc(C(F)(F)F)o1 (stereo not drawn)
(2) CC1(C(=O)NCc2cc(Cl)c(C3CCC(=O)NC3=O)c(Cl)c2)COc2ccccc2O1 (stereo not drawn)
(3) Cn1ncc2ccc(C3(C(=O)NCc4cc(Cl)c(C5CCC(=O)NC5=O)c(Cl)c4)CC(=O)C3)cc21 (stereo not drawn)
(4) Cc1ccc(C(C)(C)C(=O)NCc2cc(Cl)c(C3CCC(=O)NC3=O)c(Cl)c2)cn1 (stereo not drawn)
# rank by EC50, ascending (min first) Answer by writing out the labels in the requested order.
2, 3, 4, 1
(2: 30 nM, 3: 70 nM, 4: 110 nM, 1: 170 nM)

(A) Cn1cccc(C(C)(C)C(=O)NCc2cc(Cl)c(C3CCC(=O)NC3=O)c(Cl)c2)c1=O (stereo not drawn)
(B) CC(C)(C(=O)NCc1cc(Cl)c(C2CCC(=O)NC2=O)c(Cl)c1)c1ncc(CC(F)(F)F)cn1 (stereo not drawn)
Pick one: A or B . Which one has the lower reported EC50? // output: label of the selected item
A
